Tested on: S. cerevisiae strain ARE T289A (AfCyp51A-6×His T289A, AfCprA2, AfErg6-FLAG)
Assay: MIC80 susceptibility, strain T289A
Type: cell-based, Saccharomyces cerevisiae
Task for the reader: assign each of the following molecules its reported greater susceptibility (MIC80) of strain T289A compared with strain ARE.
Numbers only, in fold.

Each molecule below has a recorded value; state its greater susceptibility (MIC80) of strain T289A compared with strain ARE.
1. CC1COC(Cn2cncn2)(c2ccc(Oc3ccc(Cl)cc3)cc2Cl)O1 (stereo not shown)
2. O[C@@](Cn1cnnn1)(c1ccc(F)cc1F)C(F)(F)c1ccc(-c2ccc(OCC(F)(F)F)cc2)cn1
3. C[C@@H](c1ncncc1F)[C@](O)(Cn1cncn1)c1ccc(F)cc1F
4. OC(Cn1cncn1)(Cn1cncn1)c1ccc(F)cc1F

a:
[64, 21, 2.5, 11]

Value source: paper PMC11678245
